# Test system: HEK-293T
# ASSAY NAME: Multiplex assay against HEK293T
# Type: toxicity, cell-based
# ASSAY CONDITIONS: human, 24 h, 10 µM, compound concentration 10 uM, replicate 2
VALUE KIND: Population Healthy Nuclei (%)
Only the number, expressed in %, is required.

Example cases with answers are listed next.
[
  {
    "MOLECULE": "O=C(Nc1ccc(Cl)cc1)Nc1cccc(-c2cccc(N3CCCC3)n2)c1",
    "Population Healthy Nuclei (%)": 14
  },
  {
    "MOLECULE": "CN1CCC(=C2c3ccccc3CC(=O)c3sccc32)CC1.O=C(O)/C=C/C(=O)O [KETOTIFEN FUMARATE]",
    "Population Healthy Nuclei (%)": 35
  },
  {
    "MOLECULE": "O=C1NC(=O)C(c2cnc3ccccn23)=C1c1cn2c3c(cc(F)cc13)CN(C(=O)N1CCCCC1)CC2",
    "Population Healthy Nuclei (%)": 30
  },
  {
    "MOLECULE": "C=CCn1c(=O)c2cnc(Nc3ccc(N4CCN(C)CC4)cc3)nc2n1-c1cccc(C(C)(C)O)n1",
    "Population Healthy Nuclei (%)": 39
  },
  {
    "MOLECULE": "O=C1N/C(=N/c2ccccc2F)S/C1=C\\c1ccc(C(=O)O)cc1",
    "Population Healthy Nuclei (%)": 69
  }
]

Name the reported Population Healthy Nuclei (%) value associated with the molecule O=C(Nc1cccnn1)N1CCC(=Cc2cccc(Oc3ccc(C(F)(F)F)cn3)c2)CC1
74

Name the reported Population Healthy Nuclei (%) value associated with the molecule CCN1CCN(Cc2ccc(Nc3ncc(F)c(-c4cc(F)c5nc(C)n(C(C)C)c5c4)n3)nc2)CC1.CS(=O)(=O)O
18

Name the reported Population Healthy Nuclei (%) value associated with the molecule CCc1cccc(CC)c1NC(=O)c1nn(C)c2c1CCc1cnc(Nc3ccc(N4CCN(C)CC4)cc3OC)nc1-2
88

Name the reported Population Healthy Nuclei (%) value associated with the molecule O=C(Nc1ccc(-c2ccnc(Nc3ccc(N4CCOCC4)cc3)n2)cc1)[C@@H]1CCCN1
38

Name the reported Population Healthy Nuclei (%) value associated with the molecule CCOC(=O)c1c(C)[nH]c2ccc3c(c12)CN1CCc2cc(OC)ccc2C1O3 (stereo not given)
9

====

# Test system: Fibroblast
# ASSAY NAME: Multiplex assay against human fibroblast
# Format: toxicity, cell-based
# ASSAY CONDITIONS: 24 h, 1 µM, compound concentration 1 uM, replicate 2
Below, each entry is listed with its recorded Population Pyknosed Nuclei (%).
Only the number, expressed in %, is required.

Example cases with answers are listed next.
[
  {
    "MOLECULE": "Cn1nc(C(F)(F)F)cc1-c1cnc(N2CCc3cc(S(=O)(=O)Nc4c(F)cc(Cl)cc4F)cc(N4CCCC4=O)c32)nc1",
    "TARGET": "Fibroblast",
    "VALUE KIND": "Population Pyknosed Nuclei (%)",
    "RECORDED RESULT": 16
  },
  {
    "MOLECULE": "CCn1cc(-c2ccnc3[nH]c(-c4cccc(CN(C)C)c4)cc23)c(-c2ccc(NC(=O)N(C)C)cc2)n1",
    "TARGET": "Fibroblast",
    "VALUE KIND": "Population Pyknosed Nuclei (%)",
    "RECORDED RESULT": 11
  },
  {
    "MOLECULE": "S=C(NCCCc1c[nH]cn1)NCCCN(Cc1ccc(Cl)c(Cl)c1)c1ccc(Br)cn1",
    "TARGET": "Fibroblast",
    "VALUE KIND": "Population Pyknosed Nuclei (%)",
    "RECORDED RESULT": 0
  },
  {
    "MOLECULE": "C=CCn1c(=O)c2cnc(Nc3ccc(N4CCN(C)CC4)cc3)nc2n1-c1cccc(C(C)(C)O)n1",
    "TARGET": "Fibroblast",
    "VALUE KIND": "Population Pyknosed Nuclei (%)",
    "RECORDED RESULT": 6
  },
  {
    "MOLECULE": "CN1CCC(=C2c3ccccc3CC(=O)c3sccc32)CC1.O=C(O)/C=C/C(=O)O [KETOTIFEN FUMARATE]",
    "TARGET": "Fibroblast",
    "VALUE KIND": "Population Pyknosed Nuclei (%)",
    "RECORDED RESULT": 5
  },
  {
    "MOLECULE": "COc1cc(N2CCN(C)CC2)ccc1Nc1ncc2c(n1)N(C)c1ccccc1C(=O)N2C",
    "TARGET": "Fibroblast",
    "VALUE KIND": "Population Pyknosed Nuclei (%)",
    "RECORDED RESULT": 14
  },
  {
    "MOLECULE": "CCCS(=O)(=O)Nc1ccc(F)c(C(=O)c2c[nH]c3ncc(Cl)cc23)c1F",
    "TARGET": "Fibroblast",
    "VALUE KIND": "Population Pyknosed Nuclei (%)",
    "RECORDED RESULT": 18
  }
]

Please examine the following record next.
Name the reported Population Pyknosed Nuclei (%) value associated with the molecule CNC(=O)c1ccc(Nc2nc(OC3CCCC3)c3c(-c4ccc5nc(C)oc5c4)c[nH]c3n2)c(OC)c1
1

====

# Tested on: HEK-293T
# ASSAY NAME: Multiplex assay against HEK293T
# Format: toxicity, cell-based
# ASSAY CONDITIONS: human, 24 h, 10 µM, compound concentration 10 uM, replicate 2
VALUE KIND: Population Membrane Permeable-Phenotype (%)
Only the number, expressed in %, is required.

[
  {
    "COMPOUND": "CN1CCC(=C2c3ccccc3CC(=O)c3sccc32)CC1.O=C(O)/C=C/C(=O)O [KETOTIFEN FUMARATE]",
    "RECORDED RESULT": 3
  },
  {
    "COMPOUND": "O=C(Nc1ccc(-c2ccnc(Nc3ccc(N4CCOCC4)cc3)n2)cc1)[C@@H]1CCCN1",
    "RECORDED RESULT": 7
  },
  {
    "COMPOUND": "CCc1cccc(CC)c1NC(=O)c1nn(C)c2c1CCc1cnc(Nc3ccc(N4CCN(C)CC4)cc3OC)nc1-2",
    "RECORDED RESULT": 13
  },
  {
    "COMPOUND": "CN1C2CCC1CC(OC(c1ccc(F)cc1)c1ccc(F)cc1)C2.Cl (configuration not stated)",
    "RECORDED RESULT": 1
  },
  {
    "COMPOUND": "CNC(=O)c1ccc(Nc2nc(OC3CCCC3)c3c(-c4ccc5nc(C)oc5c4)c[nH]c3n2)c(OC)c1",
    "RECORDED RESULT": 17
  },
  {
    "COMPOUND": "Cn1nc(C(F)(F)F)cc1-c1cnc(N2CCc3cc(S(=O)(=O)Nc4c(F)cc(Cl)cc4F)cc(N4CCCC4=O)c32)nc1 [TP-020]",
    "RECORDED RESULT": 5
  }
]

Please examine the following record next.
Name the reported Population Membrane Permeable-Phenotype (%) value associated with the compound Cl.Oc1ccc2c3c1O[C@H]1c4[nH]c5c(c4C[C@@]4(O)[C@@H](C2)N(CC2CC2)CC[C@]314)C[C@@]1(O)[C@H]2Cc3ccc(O)c4c3[C@@]1(CCN2CC1CC1)[C@H]5O4
4

====

# System: HEK-293T
# ASSAY NAME: Multiplex assay against HEK293T
# Format: toxicity, cell-based
# ASSAY CONDITIONS: human, 24 h, 10 µM, compound concentration 10 uM, replicate 2
Returns one of true or false; true when Population Apoptotic (%) is >= 10%.

Use the examples below as a reference point.
[
  {
    "COMPOUND": "Cn1nc(C(F)(F)F)cc1-c1cnc(N2CCc3cc(S(=O)(=O)Nc4c(F)cc(Cl)cc4F)cc(N4CCCC4=O)c32)nc1 [TP-020]",
    "LABEL": "false"
  },
  {
    "COMPOUND": "COc1ccc(S(=O)(=O)N(CCO)c2ccccc2CN(C)C/C=C/c2ccc(Cl)cc2)cc1.O=P(O)(O)O",
    "LABEL": "false"
  },
  {
    "COMPOUND": "CCc1cccc(CC)c1NC(=O)c1nn(C)c2c1CCc1cnc(Nc3ccc(N4CCN(C)CC4)cc3OC)nc1-2",
    "LABEL": "true"
  },
  {
    "COMPOUND": "Cc1cc(C)c(S(=O)(=O)N(Cc2ccc(-c3cccc(S(C)(=O)=O)c3)cc2)Cc2ccc(C(F)(F)F)o2)c(C)c1",
    "LABEL": "true"
  },
  {
    "COMPOUND": "CCc1cccc(CC)c1NC(=O)c1nn(C)c2c1CCc1cnc(Nc3ccc(C(=O)NC4CCN(C)CC4)cc3OC(F)(F)F)nc1-2",
    "LABEL": "true"
  }
]

Confirm if Population Apoptotic (%) reported for the compound COc1cccc2cc(-c3nc([C@H]4CC[C@H](C(=O)O)CC4)n4ncnc(N)c34)[nH]c12 [OSI-027] is 10% or above.
false

Confirm if Population Apoptotic (%) reported for the compound Cc1ccc2nc(NCCN)c3ncc(C)n3c2c1.O=C(O)C(F)(F)F.O=C(O)C(F)(F)F is 10% or above.
true
